test system: Staphylococcus aureus; assay: Antibacterial activity against Staphylococcus aureus MRSA ATCC 43300 (CO-ADD:GP_020); MIC in CAMBH media using NBS plates, by Resazurin F(560/590); type: functional; conditions: Concentration 20 uM, ASSAY_TEST Inhibition of Bacterial Growth, detection method Resazurin, Fluorescence (ex560/em590), MEDIA CAMHB, plate type 384well, CORNING #3640, time 18 hr
Give Inhibition for every item shown.
One number for each entry, in %.

For orientation, consider the following solved cases.
COc1c2occc2cc2ccc(=O)oc12 :: 3.08
CC1=C2[C@H]3OC(=O)[C@@H](C)[C@@H]3CC[C@@]2(C)C=C/C1=N\O :: 19.54
O=C(O)CCCCCCC[C@@H](O)[C@@H](O)CCCCCCO :: 20.06
COc1c(O)cc2oc3cc(O)c(CC=C(C)C)c(O)c3c(=O)c2c1CC=C(C)C :: -10.76

Please state, for each entry, its recorded Inhibition.
1. COc1cc([C@@H]2c3cc4c(cc3[C@@H](OC3OC5CO[C@@H](c6cccs6)OC5C(O)C3O)[C@H]3COC(=O)[C@H]23)OCO4)cc(OC)c1O (stereo partly specified)
2. CC(C)CC1NC(=O)C(C(C)C)NC(=O)CC(C)COC(=O)C(CC(C)C)N(C)C(=O)C(C(C)C)NC(=O)C(C(C)C)OC1=O (stereo unspecified)

Resp:
[7.05, -2.11]

* * *

tested on: Cryptococcus neoformans; conditions: Concentration 20 uM; ASSAY_TEST Inhibition of Fungal Growth; detection method Resazurin; Absorption (OD600-OD570); plate type 384well; NBS; CORNING #3640
Description: Antifungal activity against Cryptococcus neoformans H99 ATCC 208821 (CO-ADD:FG_002); MIC in YNB media using NBS plates, by Resazurin OD(600-570)
Results with a measured potency or affinity are listed apart.
Exercise: state measured Inhibition for each of the molecules provided.
Answers are plain numbers, in %.

Batch: Inhibition for all items listed.
1. C=C1C(=O)OC2CC1C(O)C/C(C)=C/CC/C(C)=C/C(O)CC2C (stereo not given)
2. COC(=O)[C@]1(C)CCC[C@]2(C)C3=CC(=O)[C@@]4(C(C)C)O[C@H]4[C@]3(O)CC[C@@H]12
3. CCCCCC[C@H]([C@H](C)O)n1cnc2c(N)ncnc21.Cl
4. CC1(C)CC23C4COC(=O)C2CCC1C3CC4=O (stereo not given)

Resp:
[-14.61, -11.73, -9.44, -8.62]

* * *

tested on: Klebsiella pneumoniae; details: Concentration 20 uM; ASSAY_TEST Inhibition of Bacterial Growth; detection method Absorption (OD600); MEDIA CAMHB; plate type 384well; NBS; CORNING #3640; time 18 hr
Description: Antibacterial activity against Klebsiella pneumoniae MDR ATCC 70063 (CO-ADD:GN_003); MIC in CAMBH media using NBS plates, by OD(600)
Results with a measured potency or affinity are listed apart.
ASSAY METRIC: Inhibition

Consider the worked cases shown below.
COc1cc(/C=C/C(=O)CC(=O)/C=C/c2ccc(O)c(OC)c2)ccc1O :: 14.8%
COC(=O)C1C(O)CCC2CN3CCc4c([nH]c5ccccc45)C3CC21 (centres undefined) :: 13.74%
O=c1oc2cc(O)ccc2c2oc3cc(O)ccc3c12 :: -3.39%

Read the next record carefully.
Req: I am curious: what Inhibition value has been reported for CN1CCc2cc3c(cc2C(=O)Cc2ccc4c(c2C1)OCO4)OCO3.Cl [PROTOPINE HYDROCHLORIDE] ?
Resp: 4.34%

* * *

tested on: Candida albicans; settings: 20 µM
Description: Antifungal activity against Candida albicans ATCC 90028 (CO-ADD:FG_001); MIC in YNB media using NBS plates, by OD630
Results with a measured potency or affinity are listed apart.
ASSAY METRIC: Inhibition

I have 3 molecules here; please give me Inhibition for each one.
1. CC1(C)CCCC2(C)C3=C(CCC12)C(=O)OC3 (stereo not drawn)
2. COc1cc(/C=C/C(=O)CC(=O)/C=C/c2ccc(O)c(OC)c2)ccc1O [CURCUMIN]
3. CCC1OC(=O)C(C)C(OC2CC(C)(O)C(O)C(C)O2)C(C)C(O)C(C)(O)CC(C)C(=O)C(C)C(O)C1C (stereo not drawn)

Resp:
["0.95%", "-4.9%", "1.65%"]
